experiment: Cytotoxicity against human LO2 cells after 72 hrs by MTT assay; format: cell-based, L02
METRIC NAME: CC50 at 72 h (µM)
Answers are plain numbers, in µM.

CHEMICAL STRUCTURE | METRIC NAME | EXPERIMENTAL VALUE
COc1ccc(-c2cc(C(F)(F)F)c3c(N)c(C(N)=O)sc3n2)cc1 | CC50 at 72 h | 26.2
Nc1c(C(=O)N2CCn3c(nnc3C(F)(F)F)C2)sc2nc(-c3ccccc3)cc(C(F)(F)F)c12 | CC50 at 72 h | 40.7

Next up:
Would you mind telling me what CC50 at 72 h value was observed for Nc1c(C(=O)N2CCOCC2)sc2nc(-c3ccccc3)cc(C(F)(F)F)c12 ?
94.4

----------
Answer each item with its documented EC50.
test system: Hepatitis C virus; assay: Antiviral activity against HCV genotype 1b infected in human HuH7 cells assessed as inhibition of viral RNA replication after 72 hrs by luciferase reporter gene assay; assay type: functional, organism-based, Hepacivirus hominis; conditions: Huh-7, 72 h
Give bare numbers, in µM.

Recorded EC50, per entry:
CHEMICAL STRUCTURE | UNIT ABBREV | EC50
COc1cccc(-c2cc(C(F)(F)F)c3c(N)c(C(=O)N4CCOCC4)sc3n2)c1 | µM | 10.8
CCOC(=O)c1sc2nc(-c3ccccc3)cc(C(F)(F)F)c2c1N | µM | 19.3
NC(=O)c1sc2nc(C3CC3)cc(C(F)(F)F)c2c1N | µM | 12.2
COc1ccccc1-c1cc(C(F)(F)F)c2c(N)c(C(N)=O)sc2n1 | µM | 14.3
Nc1c(C(=O)N2CCNCC2)sc2nc(-c3ccccc3)cc(C(F)(F)F)c12 | µM | 9.6

For every item below, please supply its EC50.
1. CCOC(=O)c1sc2nc(C3CC3)cc(C(F)(F)F)c2c1N
2. Nc1c(C(=O)N2CCOCC2)sc2nc(-c3ccc(F)cc3)cc(C(F)(F)F)c12
3. Nc1c(C(=O)NCc2cccs2)oc2nc(-c3ccccc3)cc(C(F)(F)F)c12
4. Nc1c(C(=O)N2CCOCC2)sc2nc(-c3nccs3)cc(C(F)(F)F)c12

[6.8, 18.6, 9.8, 8.9]

----------
test system: Hepatitis C virus; experiment: Antiviral activity against HCV genotype 1b infected in human HuH7 cells assessed as inhibition of viral RNA replication after 72 hrs by luciferase reporter gene assay; type: functional, organism-based, Hepacivirus hominis; conditions: Huh-7, 72 h
Field: pEC50. Provide a value for each of the compounds that follow.
Give bare numbers, as −log10 of the molar value.

Reference set, count: 3
CHEMICAL STRUCTURE | pEC50
CCOC(=O)c1sc2nc(-c3cccs3)cc(C(F)(F)F)c2c1N | 5.00
CCOC(=O)c1oc2nc(-c3ccccc3)cc(C(F)(F)F)c2c1N | 5.17
COc1ccc(-c2cc(C(F)(F)F)c3c(N)c(C(=O)N4CCOCC4)sc3n2)cc1 | 4.99

Please turn your attention to the following entry.
Fill blank: measured pEC50 of the compound CN1CCN(C(=O)c2sc3nc(-c4ccccc4)cc(C(F)(F)F)c3c2N)CC1 is ____.
4.94

----------
test: Cytotoxicity against human HEK293 cells after 72 hrs by MTT assay; type: cell-based
METRIC NAME: CC50 at 72 h

CHEMICAL STRUCTURE | EXPERIMENTAL VALUE
Nc1c(C(=O)N2CCn3c(nnc3C(F)(F)F)C2)sc2nc(-c3ccccc3)cc(C(F)(F)F)c12 | 28 µM
COc1ccc(-c2cc(C(F)(F)F)c3c(N)c(C(N)=O)sc3n2)cc1 | 24.7 µM
Nc1c(C(=O)N2CCOCC2)sc2nc3c(c(C(F)(F)F)c12)CCc1ccccc1-3 | 72.7 µM
CCN(CC)C(=O)c1sc2nc(-c3ccccc3)cc(C(F)(F)F)c2c1N | > 100 µM
Nc1c(C(=O)N2CCOCC2)sc2nc(-c3ccccc3)cc(C(F)(F)F)c12 | 85.1 µM

Okay, now this compound:
For O=C(c1cc2c(C(F)(F)F)cc(-c3ccccc3)nc2s1)N1CCOCC1 , what is its reported CC50 at 72 h?
92.6 µM

----------
Give measured EC50 for each item. Keep answers brief.
system: Hepatitis C virus; assay: Antiviral activity against HCV genotype 1b infected in human HuH7 cells assessed as inhibition of viral RNA replication after 72 hrs by luciferase reporter gene assay; assay type: functional, organism-based, Hepacivirus hominis; conditions: Huh-7, 72 h
Answers are plain numbers, in µM.

CHEMICAL STRUCTURE | UNIT ABBREV | EXPERIMENTAL VALUE
Nc1c(C(=O)N2CCn3c(nnc3C(F)(F)F)C2)sc2nc(-c3ccccc3)cc(C(F)(F)F)c12 | µM | 3.3
O=C(c1cc2c(C(F)(F)F)cc(-c3ccccc3)nc2s1)N1CCOCC1 | µM | 4.5

Respectfully, I request EC50 for each entry included below.
1. Nc1c(C(=O)N2CCCCC2)sc2nc(-c3ccccc3)cc(C(F)(F)F)c12
2. Nc1c(C(=O)N2CCOCC2)sc2nc3c(c(C(F)(F)F)c12)CCc1ccccc1-3
3. CN(C)C(=O)c1sc2nc(-c3ccccc3)cc(C(F)(F)F)c2c1N
4. Nc1c(C(=O)N2CCOCC2)sc2nc(-c3ccco3)cc(C(F)(F)F)c12
5. Nc1c(C(=O)N2CCOCC2)sc2nc(-c3ccccc3F)cc(C(F)(F)F)c12
6. Nc1c(C(=O)N2CCOCC2)sc2nc(-c3cccs3)cc(C(F)(F)F)c12
7. CCN(CC)C(=O)c1sc2nc(-c3ccccc3)cc(C(F)(F)F)c2c1N

1: 5.9; 2: 3.9; 3: 8.2; 4: 9.6; 5: 17.6; 6: 6.5; 7: 3.5

Bench note: what EC50 did Nc1c(C(=O)NCc2cccs2)sc2nc(-c3ccccc3)cc(C(F)(F)F)c12 show?
8.2

----------
Consider the following compounds; for each one, report its CC50 at 72 h.
test: Cytotoxicity against human LO2 cells after 72 hrs by MTT assay; type: cell-based, L02

Recorded CC50 at 72 h, per entry:
CHEMICAL STRUCTURE | CC50 at 72 h
CCN(CC)C(=O)c1sc2nc(-c3ccccc3)cc(C(F)(F)F)c2c1N | > 100 µM
O=C(c1cc2c(C(F)(F)F)cc(-c3ccccc3)nc2s1)N1CCOCC1 | > 100 µM

Switching to the query record.
Any idea what CC50 at 72 h was measured for Nc1c(C(=O)N2CCOCC2)sc2nc3c(c(C(F)(F)F)c12)CCc1ccccc1-3 ?
> 100 µM
